# tested on: human complement protein C3
quantity kind: ED50 80% human plasma (60 min, nM), C3 cleavage
Just the number plus its unit, please.

Previously resolved entries follow.
| protein | result value |
| --- | --- |
| Q38H/I41A/D60bV/F60eR/Y60gW/D96I/F97N/T98G/F99L/C122S/G151N/Q175L/Q192D (protein) VVGGTDADEGEWPWQVSLHALGHGHACGASLISPNWLVSAAHCYIDVRGRRWSDPTQWTAFLGLHDQSQRSAPGVQERRLKRIISHPFFNINGLDYDIALLELEKPAEYSSMVRPISLPDASHVFPAGKAIWVTGWGHTQYGGTNALILQKGEIRVINQTTCENLLPQLITPRMMCVGFLSGGVDSCDGDSGGPLSSVEADGRIFQAGVVSWGDGCAQRNKPGVYTRLPLFRDWIKENTGV | 24 nM |
| Q38H/I41A/D60bV/F60eR/Y60gW/D96I/F97Y/ins97aN/T98G/F99L/C122S/G151N/Q175L/Q192D (protein) VVGGTDADEGEWPWQVSLHALGHGHACGASLISPNWLVSAAHCYIDVRGRRWSDPTQWTAFLGLHDQSQRSAPGVQERRLKRIISHPFFNIYNGLDYDIALLELEKPAEYSSMVRPISLPDASHVFPAGKAIWVTGWGHTQYGGTNALILQKGEIRVINQTTCENLLPQLITPRMMCVGFLSGGVDSCDGDSGGPLSSVEADGRIFQAGVVSWGDGCAQRNKPGVYTRLPLFRDWIKENTGV | 27 nM |

Let us move to another entry and its ED50 80% human plasma (60 min, nM), C3 cleavage.
Exam item: ED50 80% human plasma (60 min, nM), C3 cleavage lookup needed for Q38H/I41A/D60bT/F60eK/Y60gW/F97T/ins97aE/T98G/F99L/C122S/G151H/Q175L/Q192D (protein) VVGGTDADEGEWPWQVSLHALGHGHACGASLISPNWLVSAAHCYIDTRGKRWSDPTQWTAFLGLHDQSQRSAPGVQERRLKRIISHPFFNDTEGLDYDIALLELEKPAEYSSMVRPISLPDASHVFPAGKAIWVTGWGHTQYGGTHALILQKGEIRVINQTTCENLLPQLITPRMMCVGFLSGGVDSCDGDSGGPLSSVEADGRIFQAGVVSWGDGCAQRNKPGVYTRLPLFRDWIKENTGV , thanks.
Marked response: 38 nM
